Test system: HeLa
Experiment: Antiviral activity of compound was tested against Coxsackie B4 virus infected HeLa cell lines.
Type: functional
Details: Homo sapiens
Known MIC50 of a selection of compounds
Reported Metric: MIC50

CN(C)CC1CCN(C23CC4CC(CC(C4)C2)C3)C1 (centres undefined)	> 200 µg/mL
CCN1CCOCC12C1CC3CC(C1)CC2C3 (centres undefined)	> 400 µg/mL
CN1CCOCC12C1CC3CC(C1)CC2C3 (centres undefined)	> 400 µg/mL
CN(C)CC1CCCN1C12CC3CC(CC(C3)C1)C2 (centres undefined)	> 400 µg/mL

* * *

Assay: Antiviral activity against influenza A,H2N2 virus infected MDCK cell lines.
Assay type: functional
Label key: Condition met means MIC50 under 4 µg/mL; Condition not met means MIC50 of 4 µg/mL or more.

C1COCC2(N1)C1CC3CC(C1)CC2C3 (configuration not stated)	Condition met
CN(C)C1(C23CC4CC(CC(C4)C2)C3)CCCC1	Condition not met
C1CNC(C23CC4CC(CC(C4)C2)C3)C1 (configuration not stated)	Condition met
CC1(C)CCCN1CC12CC3CC(CC(C3)C1)C2	Condition not met
CN1CCOCC12C1CC3CC(C1)CC2C3 (configuration not stated)	Condition not met
CN(C)CC1CCN(C23CC4CC(CC(C4)C2)C3)C1 (configuration not stated)	Condition not met
CCN1CCOCC12C1CC3CC(C1)CC2C3 (configuration not stated)	Condition not met
